Recorded values, source patent US20260151494A1.

# maps each entry to its hCD71:HSA
- SYSTEM: T1, human CD71 extracellular domain (human, UniProt P02786 89-760)
- T1 construct: also called hCD71; CD71-ECD
- T1 sequence (P02786 89-760): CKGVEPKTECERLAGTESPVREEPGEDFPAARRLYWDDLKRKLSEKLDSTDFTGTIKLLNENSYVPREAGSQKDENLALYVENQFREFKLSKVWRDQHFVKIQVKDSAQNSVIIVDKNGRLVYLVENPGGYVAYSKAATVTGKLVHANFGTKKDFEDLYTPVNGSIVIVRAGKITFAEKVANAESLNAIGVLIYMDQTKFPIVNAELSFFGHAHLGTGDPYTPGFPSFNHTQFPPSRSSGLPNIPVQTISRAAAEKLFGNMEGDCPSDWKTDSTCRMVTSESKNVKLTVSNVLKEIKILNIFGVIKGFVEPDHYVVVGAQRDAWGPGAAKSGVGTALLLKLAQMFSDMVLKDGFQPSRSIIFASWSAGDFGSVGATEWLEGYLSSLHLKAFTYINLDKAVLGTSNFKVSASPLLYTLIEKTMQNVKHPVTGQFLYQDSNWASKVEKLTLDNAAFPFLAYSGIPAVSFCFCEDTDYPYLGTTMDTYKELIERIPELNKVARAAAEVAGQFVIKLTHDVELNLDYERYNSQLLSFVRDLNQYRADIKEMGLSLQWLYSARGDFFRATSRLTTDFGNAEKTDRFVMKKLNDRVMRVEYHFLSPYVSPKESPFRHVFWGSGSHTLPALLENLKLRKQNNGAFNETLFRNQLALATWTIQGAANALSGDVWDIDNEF
- METHOD NOTES: primary ELISA; signal over HSA control
Give just the number in ratio; leave the unit off.

BINDER: CD71-binding FN3 domain SEQ ID NO 427 (designed binder) MLPAPKNLVVSRVTEDSARLSWTAPDAAFDSFFIGYLEPQPPGEAIHLRVPGSERSYDLTGLKPGTEYNVTIQGVKGGFPSDPLIAVFTT
READOUT NUMBER: 392

BINDER: CD71-binding FN3 domain SEQ ID NO 431 (designed binder) MLPAPKNLVVSRVTEDSARLSWTAPDAAFDSFFIGYLEPQPPGEAIVLFVPGSERSYDLTGLKPGTEYNVTIQGVKGGFPSNPLSAISTT
READOUT NUMBER: 89

BINDER: CD71-binding FN3 domain SEQ ID NO 353 (designed binder) MLPAPKNLVVSRVTEDSARLSWTAPDAAFDSFFIGYLEPQPPGEAIGLFVPGSERSYDLTGLKPGTEYNVTIQGVKGGFPSNPLEARFTT
READOUT NUMBER: 53

-- ask Recorded hCD71:HSA for CD71-binding FN3 domain SEQ ID NO 412 (designed binder) MLPAPKNLVVSRVTEDSARLSWTAPDAAFDSFFIGYLEPQPPGEAIGLLVPGSERSYDLTGLKPGTEYNVTIQGVKGGFPSHPLLAVFTT , please?
-- reply 112
